target: xanthine oxidase (Bos taurus)
Sequence (P80457 whole entry): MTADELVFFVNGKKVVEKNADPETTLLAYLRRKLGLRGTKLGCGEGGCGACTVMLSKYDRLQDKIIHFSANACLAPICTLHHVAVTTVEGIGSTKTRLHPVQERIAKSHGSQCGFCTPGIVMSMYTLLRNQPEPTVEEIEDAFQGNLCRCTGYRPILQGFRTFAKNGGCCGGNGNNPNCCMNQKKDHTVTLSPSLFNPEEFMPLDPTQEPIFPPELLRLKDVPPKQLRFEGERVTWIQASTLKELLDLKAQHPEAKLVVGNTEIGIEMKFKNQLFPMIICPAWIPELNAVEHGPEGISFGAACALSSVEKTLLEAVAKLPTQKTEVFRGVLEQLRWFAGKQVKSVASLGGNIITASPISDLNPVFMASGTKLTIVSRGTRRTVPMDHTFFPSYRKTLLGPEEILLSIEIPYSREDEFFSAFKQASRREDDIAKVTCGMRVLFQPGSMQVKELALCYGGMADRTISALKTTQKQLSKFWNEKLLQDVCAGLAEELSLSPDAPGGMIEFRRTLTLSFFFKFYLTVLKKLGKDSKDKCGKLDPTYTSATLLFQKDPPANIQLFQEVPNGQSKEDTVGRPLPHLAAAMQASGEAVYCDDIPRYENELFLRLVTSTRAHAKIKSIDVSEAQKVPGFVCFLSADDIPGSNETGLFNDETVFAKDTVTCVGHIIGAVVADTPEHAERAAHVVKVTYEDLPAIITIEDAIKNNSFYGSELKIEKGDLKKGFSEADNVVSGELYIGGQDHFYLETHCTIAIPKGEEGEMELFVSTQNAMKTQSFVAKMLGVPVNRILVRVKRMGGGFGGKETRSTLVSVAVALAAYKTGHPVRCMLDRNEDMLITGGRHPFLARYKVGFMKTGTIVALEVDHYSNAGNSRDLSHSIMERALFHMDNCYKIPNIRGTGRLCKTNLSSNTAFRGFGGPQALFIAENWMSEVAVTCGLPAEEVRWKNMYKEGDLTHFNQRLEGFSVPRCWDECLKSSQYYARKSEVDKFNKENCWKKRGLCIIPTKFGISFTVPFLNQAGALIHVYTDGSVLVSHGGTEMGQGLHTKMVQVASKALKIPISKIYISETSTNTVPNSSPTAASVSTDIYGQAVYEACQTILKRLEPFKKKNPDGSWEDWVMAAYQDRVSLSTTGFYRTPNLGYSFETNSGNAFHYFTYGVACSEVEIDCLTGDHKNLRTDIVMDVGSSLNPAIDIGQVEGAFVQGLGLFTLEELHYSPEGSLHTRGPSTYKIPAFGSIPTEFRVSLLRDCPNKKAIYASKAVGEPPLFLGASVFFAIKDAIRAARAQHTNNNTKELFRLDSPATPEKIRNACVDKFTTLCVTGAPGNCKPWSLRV
Measured pIC50 by item
Please note pIC50 is a logarithmic value: minus log10 of concentration in mol/L. Answer with that number alone.

INSERT INTO results (compound, system, reading) VALUES
  ('CC(CCC1(O)OC2CC3C4CC=C5CC(OC6OC(CO)C(OC7OC(C)C(O)C(O)C7O)C(O)C6OC6OC(C)C(O)C(O)C6O)CCC5(C)C4CCC3(C)C2C1C)COC1OC(CO)C(O)C(O)C1O (centres unmarked)', 'xanthine oxidase (Bos taurus)', 3.70);

Value lookup for pIC50; key = CC1=C(CC[C@@H](C)CO[C@@H]2O[C@H](CO)[C@@H](O)[C@H](O)[C@H]2O)OC2CC3C4CC=C5CC(O[C@@H]6O[C@H](CO)[C@@H](O)[C@H](O[C@@H]7O[C@H](CO)[C@@H](O)[C@H](O)[C@H]7O)[C@H]6O[C@@H]6O[C@@H](C)[C@H](O)[C@@H](O)[C@H]6O)CC[C@]5(C)C4CC[C@]3(C)C12 (some centres unmarked)
3.60
